Source: ChEMBL document CHEMBL2424625

As a worked illustration, we turn to Ki data collected for Glucocorticoid receptor (Homo sapiens, UniProt P04150).
// units = nM; emit number, no label

Sample records with Ki:
>  <Compound>
CC(CNC(=O)CC(F)(F)F)[C@@H](c1ccccc1)c1ccc2c(cnn2-c2ccc(F)cc2)c1 (single isomer, unassigned)

>  <Ki / nM>
2.3

$$$$
>  <Compound>
CC(=O)NCC(C)(C)[C@@H](c1ccccc1)c1ccc2c(cnn2-c2ccc(F)cc2)c1

>  <Ki / nM>
2.4

$$$$
>  <Compound>
CCS(=O)(=O)NCC(C)[C@@H](c1ccccc1)c1ccc2c(cnn2-c2ccc(F)cc2)c1 (stereo partly drawn)

>  <Ki / nM>
0.87

$$$$

Problem: For Glucocorticoid receptor (Homo sapiens, UniProt P04150), provide Ki of `CC(C)(CNC(=O)NCC(F)(F)F)[C@@H](c1ccccc1)c1ccc2c(cnn2-c2ccc(F)cc2)c1` please.
Solution: 10.2

Problem: Write down the reported Ki of CC(CNC(=O)CC(F)(F)F)[C@@H](c1ccccc1)c1ccc2c(cnn2-c2ccc(F)cc2)c1 (stereo in doubt; 3i) , test system: Glucocorticoid receptor (Homo sapiens, UniProt P04150).
Sequence (P04150 whole entry): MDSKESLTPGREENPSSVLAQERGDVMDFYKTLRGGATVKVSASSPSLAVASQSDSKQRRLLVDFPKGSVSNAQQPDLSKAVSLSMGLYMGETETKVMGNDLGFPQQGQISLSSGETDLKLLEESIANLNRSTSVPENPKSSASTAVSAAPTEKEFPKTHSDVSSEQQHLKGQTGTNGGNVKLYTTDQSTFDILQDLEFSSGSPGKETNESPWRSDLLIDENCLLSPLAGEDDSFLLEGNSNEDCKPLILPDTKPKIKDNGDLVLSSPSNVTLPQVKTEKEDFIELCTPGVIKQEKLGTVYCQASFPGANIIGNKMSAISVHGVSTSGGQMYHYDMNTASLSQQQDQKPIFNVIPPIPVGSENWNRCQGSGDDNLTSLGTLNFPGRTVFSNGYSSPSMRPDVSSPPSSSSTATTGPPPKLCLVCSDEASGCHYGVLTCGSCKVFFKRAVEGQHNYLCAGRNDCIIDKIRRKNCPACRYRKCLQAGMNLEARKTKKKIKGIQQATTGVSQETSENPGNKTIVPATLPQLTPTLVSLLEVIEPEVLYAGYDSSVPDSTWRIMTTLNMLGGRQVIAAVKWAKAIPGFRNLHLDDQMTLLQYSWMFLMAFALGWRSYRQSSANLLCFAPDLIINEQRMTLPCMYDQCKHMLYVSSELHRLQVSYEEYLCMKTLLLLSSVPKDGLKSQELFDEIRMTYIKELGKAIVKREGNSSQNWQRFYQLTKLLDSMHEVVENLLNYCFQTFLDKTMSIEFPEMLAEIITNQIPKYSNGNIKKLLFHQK
Solution: 2.4

Problem: Reported Ki for Glucocorticoid receptor (Homo sapiens, UniProt P04150), given `CC(C)(C)CC(=O)NCC(C)(C)[C@@H](c1ccccc1)c1ccc2c(cnn2-c2ccc(F)cc2)c1` ?
Solution: 1.9

Problem: Checklist item: Ki tested on Glucocorticoid receptor (Homo sapiens, UniProt P04150), entry CC(CNS(C)(=O)=O)[C@@H](c1ccccc1)c1ccc2c(cnn2-c2ccc(F)cc2)c1 (stereo partly drawn) , value?
Solution: 0.93

Problem: What Ki appears in the records for this compound with Glucocorticoid receptor (Homo sapiens, UniProt P04150)? `CC(C)C[C@@H](c1ccc2c(cnn2-c2ccc(F)cc2)c1)C(C)(C)CNC(=O)CC(F)(F)F`
Solution: 1.3

----------
Subject Of Test: Glucocorticoid receptor (Homo sapiens, UniProt P04150)
Test Description: Transrepression activity at glucocorticoid receptor in human A549 cells assessed as inhibition of IL1beta-stimulated NFkappaB-dependent E-selectin transcription by luciferase reporter gene assay
Format: cell-based
Experimental Endpoint: EC50 (nM)
Expressed in nM, but write only the number.

The cases that follow already have their EC50 on record.
>  <Compound>
CC(C)(CNC(=O)C(F)(F)F)[C@@H](c1ccccc1)c1ccc2c(cnn2-c2ccc(F)cc2)c1

>  <EC50 / nM>
124

$$$$
>  <Compound>
CC(C)(CNC(=O)CC(F)(F)F)[C@@H](c1ccccc1)c1ccc2c(cnn2-c2ccc(F)cc2)c1

>  <EC50 / nM>
6.85

$$$$
>  <Compound>
CC(C)(CNC(=O)NCC(F)(F)F)[C@@H](c1ccccc1)c1ccc2c(cnn2-c2ccc(F)cc2)c1

>  <EC50 / nM>
393

$$$$
>  <Compound>
CC(=O)NCC(C)(C)[C@@H](c1ccccc1)c1ccc2c(cnn2-c2ccc(F)cc2)c1

>  <EC50 / nM>
1150

$$$$
>  <Compound>
CC(C)(C)NC(=O)NCC(C)(C)[C@@H](c1ccccc1)c1ccc2c(cnn2-c2ccc(F)cc2)c1

>  <EC50 / nM>
58

$$$$

Problem: For the compound `CC(C)C[C@@H](c1ccc2c(cnn2-c2ccc(F)cc2)c1)C(C)(C)CNC(=O)CC(F)(F)F` , what EC50 is on record?
Solution: 38

Problem: Which value of EC50 has been reported for `CCCS(=O)(=O)NCC(C)(C)[C@@H](c1ccccc1)c1ccc2c(cnn2-c2ccc(F)cc2)c1` in the records?
Solution: 86

Problem: # get_value(readout='EC50', item= CC(CNS(C)(=O)=O)[C@@H](c1ccccc1)c1ccc2c(cnn2-c2ccc(F)cc2)c1 (stereo partly drawn) )
Solution: 1.4
